System: LNCaP
PROTOCOL_SUMMARY: Cytotoxicity against human LNcaP cells after 48 hrs by SRB assay
Type: functional
Form field: GI50 (one value per entry).

>  <SMILES_RECORD>
CC[C@@H](C)[C@@H](NC(=O)[C@H](CCCN)NC(=O)[C@H]1CCCN1C(=O)[C@H](NC(=O)[C@@H](NC(=O)[C@@H](NC(=O)[C@H](NC(=O)CCCC(C)C)C(C)C)[C@@H](C)O)C(C)C)C(C)C)C(=O)N[C@H]1C(=O)N[C@H]([C@H](C)CC)C(=O)N[C@H](C(C)C)C(=O)N[C@@H](Cc2ccccc2)C(=O)NCC(=O)N[C@@H](C(C)C)C(=O)O[C@H]1C

>  <GI50, µM>
2.74

$$$$
>  <SMILES_RECORD>
C/C=C1\NC(=O)[C@H](Cc2ccccc2)NC(=O)[C@@H](C(C)C)NC(=O)[C@@H]([C@H](C)CC)NC(=O)[C@H](NC(=O)[C@H](NC(=O)[C@H](CCCN)NC(=O)[C@H]2CCCN2C(=O)[C@H](NC(=O)[C@@H](NC(=O)[C@@H](NC(=O)[C@H](NC(=O)C(F)(F)C(F)(F)C(F)(F)C(F)(F)C(F)(F)C(F)(F)F)C(C)C)[C@@H](C)O)C(C)C)C(C)C)[C@H](C)CC)[C@H](C)OC(=O)[C@H](C(C)C)NC1=O

>  <GI50, µM>
0.758

$$$$
>  <SMILES_RECORD>
C/C=C1\NC(=O)[C@H](Cc2ccccc2)NC(=O)[C@@H](C(C)C)NC(=O)[C@@H]([C@H](C)CC)NC(=O)[C@H](NC(=O)[C@H](NC(=O)[C@H](CCCN)NC(=O)[C@H]2CCCN2C(=O)[C@H](NC(=O)[C@@H](NC(=O)[C@@H](NC(=O)[C@@H](C(C)C)N(CCCCCC)CCCCCC)[C@@H](C)O)C(C)C)C(C)C)[C@H](C)CC)[C@H](C)OC(=O)[C@H](C(C)C)NC1=O

>  <GI50, µM>
3.72

$$$$

* * *

PROTOCOL_SUMMARY: Cytotoxicity against human IGROV cells after 48 hrs by SRB assay
Assay type: functional

>  <SMILES_RECORD>
C/C=C1\NC(=O)[C@H](Cc2ccccc2)NC(=O)[C@@H](C(C)C)NC(=O)[C@@H]([C@H](C)CC)NC(=O)[C@H](NC(=O)[C@H](NC(=O)[C@H](CCCN)NC(=O)[C@H]2CCCN2C(=O)[C@H](NC(=O)[C@H](CCC2CCCCC2)NC(=O)[C@@H](NC(=O)[C@H](NC(=O)CCCC(C)C)C(C)C)[C@@H](C)O)C(C)C)[C@H](C)CC)[C@H](C)OC(=O)[C@H](C(C)C)NC1=O

>  <TGI>
2940 nM

$$$$

* * *

Test system: DU-145
PROTOCOL_SUMMARY: Cytotoxicity against human DU145 cells after 48 hrs by SRB assay
Type: functional, cell-based
EXPERIMENTAL_CONDITIONS: Homo sapiens, DU-145, 48 h
In this section we review reported TGI values for a set of compounds.
ASSAY_METRIC: TGI (µM)

>  <SMILES_RECORD>
CC[C@@H]1NC(=O)[C@H](Cc2ccccc2)NC(=O)[C@@H](C(C)C)NC(=O)[C@@H]([C@H](C)CC)NC(=O)[C@H](NC(=O)[C@H](NC(=O)[C@H](CCCN)NC(=O)[C@H]2CCCN2C(=O)[C@H](NC(=O)[C@@H](NC(=O)[C@@H](NC(=O)[C@H](NC(=O)CCCC(C)C)C(C)C)[C@@H](C)O)C(C)C)C(C)C)[C@H](C)CC)[C@H](C)OC(=O)[C@H](C(C)C)NC1=O

>  <STUDY_SYSTEM>
DU-145

>  <NUMERIC_READOUT>
3.07

$$$$
>  <SMILES_RECORD>
C/C=C1\NC(=O)[C@H](Cc2ccccc2)NC(=O)[C@@H](C(C)C)NC(=O)[C@@H]([C@H](C)CC)NC(=O)[C@H](NC(=O)[C@H](NC(=O)[C@H](CCCN)NC(=O)[C@H]2CCCN2C(=O)[C@H](NC(=O)[C@H](CCCN)NC(=O)[C@@H](NC(=O)[C@H](NC(=O)CCCC(C)C)C(C)C)[C@@H](C)O)C(C)C)[C@H](C)CC)[C@H](C)OC(=O)[C@H](C(C)C)NC1=O

>  <STUDY_SYSTEM>
DU-145

>  <NUMERIC_READOUT>
1.33

$$$$
>  <SMILES_RECORD>
CC[C@@H](C)[C@@H](NC(=O)[C@H](CCCN)NC(=O)[C@H]1CCCN1C(=O)[C@H](NC(=O)[C@@H](NC(=O)[C@@H](NC(=O)[C@H](NC(=O)CCCC(C)C)C(C)C)[C@@H](C)O)C(C)C)C(C)C)C(=O)N[C@H]1C(=O)N[C@H]([C@H](C)CC)C(=O)N[C@H](C(C)C)C(=O)N[C@@H](Cc2ccccc2)C(=O)N[C@H](CC)C(=O)N[C@@H](C(C)C)C(=O)O[C@H]1C

>  <STUDY_SYSTEM>
DU-145

>  <NUMERIC_READOUT>
3.04

$$$$
>  <SMILES_RECORD>
C/C=C1\NC(=O)[C@H](Cc2ccccc2)NC(=O)[C@@H](C(C)C)NC(=O)[C@@H]([C@H](C)CC)NC(=O)[C@H](NC(=O)[C@H](NC(=O)[C@H](CCCN)NC(=O)[C@H]2CCCN2C(=O)[C@H](NC(=O)[C@@H](NC(=O)[C@@H](NC(=O)[C@H](NC(=O)CC[C@@H](C)CC)C(C)C)[C@@H](C)O)C(C)C)C(C)C)[C@H](C)CC)[C@H](C)OC(=O)[C@H](C(C)C)NC1=O

>  <STUDY_SYSTEM>
DU-145

>  <NUMERIC_READOUT>
2.2

$$$$
>  <SMILES_RECORD>
C/C=C1\NC(=O)[C@H](Cc2ccccc2)NC(=O)[C@@H](C(C)C)NC(=O)[C@@H]([C@H](C)CC)NC(=O)[C@H](NC(=O)[C@H](NC(=O)[C@H](CCCN)NC(=O)[C@H]2CCCN2C(=O)[C@H](NC(=O)[C@@H](NC(=O)[C@@H](NC(=O)[C@@H](CC2CCCCC2)NC(=O)CCCC(C)C)[C@@H](C)O)C(C)C)C(C)C)[C@H](C)CC)[C@H](C)OC(=O)[C@H](C(C)C)NC1=O

>  <STUDY_SYSTEM>
DU-145

>  <NUMERIC_READOUT>
1.2

$$$$

* * *

System: DU-145
PROTOCOL_SUMMARY: Cytotoxicity against human DU145 cells after 48 hrs by SRB assay
Format: functional, cell-based
EXPERIMENTAL_CONDITIONS: Homo sapiens, DU-145, 48 h
ASSAY_METRIC: TGI (nM)

>  <SMILES_RECORD>
C/C=C1\NC(=O)[C@H](Cc2ccccc2)NC(=O)[C@@H](C(C)C)NC(=O)[C@@H]([C@H](C)CC)NC(=O)[C@H](NC(=O)[C@H](NC(=O)[C@H](CCCNC(=O)C(F)(F)F)NC(=O)[C@H]2CCCN2C(=O)[C@H](NC(=O)[C@@H](NC(=O)[C@@H](NC(=O)[C@H](NC(=O)CC[C@@H](C)CC)C(C)C)[C@@H](C)OC(=O)C(F)(F)F)C(C)C)C(C)C)[C@H](C)CC)[C@H](C)OC(=O)[C@H](C(C)C)NC1=O

>  <NUMERIC_READOUT>
1170

$$$$
>  <SMILES_RECORD>
C/C=C1\NC(=O)[C@H](Cc2ccccc2)NC(=O)[C@@H](C(C)C)NC(=O)[C@@H]([C@H](C)CC)NC(=O)[C@H](NC(=O)[C@H](NC(=O)[C@H](CCCN)NC(=O)[C@H]2CCCN2C(=O)[C@H](NC(=O)[C@@H](NC(=O)[C@H](C)NC(=O)[C@H](NC(=O)CCCC(C)C)C(C)C)C(C)C)C(C)C)[C@H](C)CC)[C@H](C)OC(=O)[C@H](C(C)C)NC1=O

>  <NUMERIC_READOUT>
1250

$$$$
>  <SMILES_RECORD>
CC[C@@H](C)[C@@H](NC(=O)[C@H](CCCN)NC(=O)[C@H]1CCCN1C(=O)[C@H](NC(=O)[C@@H](NC(=O)[C@@H](NC(=O)[C@H](NC(=O)CCCC(C)C)C(C)C)[C@@H](C)O)C(C)C)C(C)C)C(=O)N[C@H]1C(=O)N[C@H]([C@H](C)CC)C(=O)N[C@H](C(C)C)C(=O)N[C@@H](Cc2ccccc2)C(=O)N/C(=C\c2ccccc2)C(=O)N[C@@H](C(C)C)C(=O)O[C@H]1C

>  <NUMERIC_READOUT>
1120

$$$$
